- Test system: COS-7
- experimental-details: Growth inhibition of African green monkey COS7 cells by MTT assay
- Format: functional, cell-based
- applied-conditions: Chlorocebus aethiops
Form field: IC50 (one value per entry).

// below: answered compounds
INSERT INTO measurements (item_smiles, observed) VALUES
  ('O=C1Nc2ccc(Br)cc2/C1=N/NC(=S)N/N=C/c1cc2ccccc2c2ccccc12', '> 50 µM'),
  ('Cc1ccc2c(c1)/C(=N/NC(=S)N/N=C/c1c(Cl)cccc1Cl)C(=O)N2', '3.87 µM');

Using the record for COc1ccc(/C=N/NC(=S)N/N=C2\C(=O)Nc3ccc(C)cc32)c(OC)c1 , report its IC50.
> 50 µM
